Numbers sourced from ChEMBL document CHEMBL4387742.

- Target Entity: Amyloid-beta precursor protein (Homo sapiens)
- Sequence (P05067 whole entry): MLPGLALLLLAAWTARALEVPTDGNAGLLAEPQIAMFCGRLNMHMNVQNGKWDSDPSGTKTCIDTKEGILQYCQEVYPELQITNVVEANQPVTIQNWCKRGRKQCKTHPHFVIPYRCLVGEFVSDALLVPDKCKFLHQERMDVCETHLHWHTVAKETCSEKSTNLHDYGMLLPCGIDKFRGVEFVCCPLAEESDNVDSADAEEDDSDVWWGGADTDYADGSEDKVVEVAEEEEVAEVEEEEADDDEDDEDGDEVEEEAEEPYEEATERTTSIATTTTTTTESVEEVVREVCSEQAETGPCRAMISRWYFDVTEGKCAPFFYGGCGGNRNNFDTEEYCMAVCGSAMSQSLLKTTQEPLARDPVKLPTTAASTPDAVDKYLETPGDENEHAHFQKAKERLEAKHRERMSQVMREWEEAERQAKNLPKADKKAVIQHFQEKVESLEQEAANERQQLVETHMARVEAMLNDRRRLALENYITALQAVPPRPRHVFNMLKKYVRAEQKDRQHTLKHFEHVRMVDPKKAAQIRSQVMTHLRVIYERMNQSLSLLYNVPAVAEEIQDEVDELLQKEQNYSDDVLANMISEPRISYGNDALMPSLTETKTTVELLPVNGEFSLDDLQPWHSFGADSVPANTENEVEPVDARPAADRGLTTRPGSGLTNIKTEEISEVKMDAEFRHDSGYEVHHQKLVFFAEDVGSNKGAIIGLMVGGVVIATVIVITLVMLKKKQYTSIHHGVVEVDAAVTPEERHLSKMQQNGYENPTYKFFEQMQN
- Method Description: Inhibition of human amyloid beta (1 to 40) assessed as reduction in aggregation measured after 24 hrs by ThT fluorescence assay
pIC50: −log10 of the molar value.

Compound	Bound Type	pIC50
COc1cc2oc(-c3ccc(O)cc3)cc(=O)c2c(O)c1-c1c(OC)cc(O)c2c(=O)cc(-c3ccc(O)cc3)oc12	=	4.48
COc1cc2oc(-c3ccc(O)cc3)cc(=O)c2c(O)c1-c1cc(-c2cc(=O)c3c(O)cc(O)cc3o2)ccc1O	=	4.67
COc1cc(O)c2c(=O)cc(-c3ccc(O)cc3)oc2c1-c1c(OC)cc(O)c2c(=O)cc(-c3ccc(O)cc3)oc12	=	4.76
COc1ccc(-c2cc(=O)c3c(O)cc(OC)c(-c4cc(-c5cc(=O)c6c(O)cc(OC)cc6o5)ccc4O)c3o2)cc1	<	4.30
COc1ccc(-c2cc(=O)c3c(O)cc(OC)c(-c4c(OC)cc(O)c5c(=O)cc(-c6ccc(OC)cc6)oc45)c3o2)cc1	<	4.30
COc1ccc(-c2cc(=O)c3c(O)cc(O)c(-c4cc(-c5cc(=O)c6c(O)cc(O)cc6o5)ccc4O)c3o2)cc1	=	5.31
COc1ccc(-c2cc(=O)c3c(O)c(Oc4ccc(-c5cc(=O)c6c(O)cc(O)cc6o5)cc4)c(OC)cc3o2)cc1	<	4.30
